# Test system: Rhodotorula mucilaginosa
# Protocol summary: Antifungal activity against Rhodotorula mucilaginosa NCIM 3174 at 1000 ug/disk after 72 hr by disk diffusion method
# Type: functional
# Recorded conditions: NCIM 3174, 72 h, read-out: DIZ
Assay endpoint: zone of inhibition at 1000 µg/disc (mm)
Answer in mm, number only, no unit symbol.

Consider COc1cccc2cc3c(=O)[nH]c(=O)[nH]c3nc12 . Its measured zone of inhibition at 1000 µg/disc is 10

***
Consider O=c1[nH]c(=S)[nH]c2nc3ccccc3cc12 . Its measured zone of inhibition at 1000 µg/disc is 12

Consider COc1ccc2nc3[nH]c(=S)[nH]c(=O)c3cc2c1 . Its measured zone of inhibition at 1000 µg/disc is 8

Consider COc1ccc2nc3[nH]c(=O)[nH]c(=O)c3cc2c1 . Its measured zone of inhibition at 1000 µg/disc is 10

Consider O=c1[nH]c(=S)[nH]c2nc3ccc(Cl)cc3cc12 . Its measured zone of inhibition at 1000 µg/disc is 12

Consider Cc1cccc2cc3c(=O)[nH]c(=O)[nH]c3nc12 . Its measured zone of inhibition at 1000 µg/disc is 13

----------
# Tested on: Streptomyces albus
# Protocol summary: Antibacterial activity against Streptomyces albus NCIM 2178 after 24 hr by broth dilution assay
# Assay type: functional
# Recorded conditions: NCIM 2178, 24 h
Recorded measurements of MIC, one per entry
Answer in µg/mL, number only, no unit symbol.

Would you please look over these solved cases?
Consider Cc1cccc2cc3c(=O)[nH]c(=S)[nH]c3nc12 . Its measured MIC is 125

Consider O=c1[nH]c(=S)[nH]c2nc3ccc(Br)cc3cc12 . Its measured MIC is 62.5

Consider Cc1cccc2cc3c(=O)[nH]c(=O)[nH]c3nc12 . Its measured MIC is 62.5

Consider O=c1[nH]c(=O)c2cc3cc(Cl)ccc3nc2[nH]1 . Its measured MIC is 62.5

Consider Cc1ccc2nc3[nH]c(=O)[nH]c(=O)c3cc2c1 . Its measured MIC is 62.5

***
Consider O=c1[nH]c(=S)[nH]c2nc3ccccc3cc12 . Its measured MIC is 62.5

Consider O=c1[nH]c(=O)c2cc3ccccc3nc2[nH]1 . Its measured MIC is 31.2

----------
# Tested on: Klebsiella aerogenes
# Protocol summary: Antibacterial activity against Enterobacter aerogenes NCIM 2239 at 1000 ug/disk after 24 hr by disk diffusion method
# Type: functional
# Recorded conditions: NCIM 2239, 24 h, read-out: DIZ
Assay endpoint: zone of inhibition at 1000 µg/disc (mm)
Answer in mm, number only, no unit symbol.

Consider COc1ccc2nc3[nH]c(=S)[nH]c(=O)c3cc2c1 . Its measured zone of inhibition at 1000 µg/disc is 13

Consider COc1cccc2cc3c(=O)[nH]c(=S)[nH]c3nc12 . Its measured zone of inhibition at 1000 µg/disc is 12

Consider O=c1[nH]c(=S)[nH]c2nc3ccc(Br)cc3cc12 . Its measured zone of inhibition at 1000 µg/disc is 8

Consider O=c1[nH]c(=S)[nH]c2nc3ccc(Cl)cc3cc12 . Its measured zone of inhibition at 1000 µg/disc is 10

Consider Cc1cccc2cc3c(=O)[nH]c(=S)[nH]c3nc12 . Its measured zone of inhibition at 1000 µg/disc is 10

Consider Cc1cccc2cc3c(=O)[nH]c(=O)[nH]c3nc12 . Its measured zone of inhibition at 1000 µg/disc is 13

***
Consider COc1ccc2nc3[nH]c(=O)[nH]c(=O)c3cc2c1 . Its measured zone of inhibition at 1000 µg/disc is 13

Consider O=c1[nH]c(=O)c2cc3ccccc3nc2[nH]1 . Its measured zone of inhibition at 1000 µg/disc is 11

Consider Cc1ccc2nc3[nH]c(=S)[nH]c(=O)c3cc2c1 . Its measured zone of inhibition at 1000 µg/disc is 13

----------
# System: Penicillium chrysogenum
# Protocol summary: Antifungal activity against Penicillium chrysogenum NCIM 707 at 1000 ug/disk after 72 hr by disk diffusion method
# Format: functional
# Recorded conditions: NCIM 707, 72 h, read-out: DIZ
Assay endpoint: zone of inhibition at 1000 µg/disc (mm)
Answer in mm, number only, no unit symbol.

Would you please look over these solved cases?
Consider Cc1cccc2cc3c(=O)[nH]c(=O)[nH]c3nc12 . Its measured zone of inhibition at 1000 µg/disc is 9

Consider O=c1[nH]c(=O)c2cc3ccccc3nc2[nH]1 . Its measured zone of inhibition at 1000 µg/disc is 13

Consider COc1cccc2cc3c(=O)[nH]c(=S)[nH]c3nc12 . Its measured zone of inhibition at 1000 µg/disc is 12

Consider O=c1[nH]c(=S)[nH]c2nc3ccc(Cl)cc3cc12 . Its measured zone of inhibition at 1000 µg/disc is 10

Consider Cc1ccc2nc3[nH]c(=O)[nH]c(=O)c3cc2c1 . Its measured zone of inhibition at 1000 µg/disc is 11

Proceeding to the next compound to report its zone of inhibition at 1000 µg/disc.
Consider COc1ccc2nc3[nH]c(=O)[nH]c(=O)c3cc2c1 . Its measured zone of inhibition at 1000 µg/disc is 9

----------
# Tested on: Aspergillus flavus
# Protocol summary: Antifungal activity against Aspergillus flavus NCIM 535 at 500 ug/disk after 72 hr by disk diffusion method
# Type: functional
# Recorded conditions: NCIM 535, 72 h, read-out: DIZ
Assay endpoint: zone of inhibition at 500 µg/disc (mm)
Answer in mm, number only, no unit symbol.

Consider O=c1[nH]c(=O)c2cc3ccccc3nc2[nH]1 . Its measured zone of inhibition at 500 µg/disc is 11

Consider Cc1ccc2nc3[nH]c(=O)[nH]c(=O)c3cc2c1 . Its measured zone of inhibition at 500 µg/disc is 9

Consider O=c1[nH]c(=S)[nH]c2nc3ccccc3cc12 . Its measured zone of inhibition at 500 µg/disc is 9

Consider Cc1cccc2cc3c(=O)[nH]c(=O)[nH]c3nc12 . Its measured zone of inhibition at 500 µg/disc is 9

----------
# System: Klebsiella aerogenes
# Protocol summary: Antibacterial activity against Enterobacter aerogenes NCIM 2239 at 500 ug/disk after 24 hr by disk diffusion method
# Format: functional
# Recorded conditions: NCIM 2239, 24 h, read-out: DIZ
Assay endpoint: zone of inhibition at 500 µg/disc (mm)
Answer in mm, number only, no unit symbol.

Consider O=c1[nH]c(=O)c2cc3ccccc3nc2[nH]1 . Its measured zone of inhibition at 500 µg/disc is 8

***
Consider COc1ccc2nc3[nH]c(=O)[nH]c(=O)c3cc2c1 . Its measured zone of inhibition at 500 µg/disc is 10

Consider Cc1ccc2nc3[nH]c(=S)[nH]c(=O)c3cc2c1 . Its measured zone of inhibition at 500 µg/disc is 9

Consider Cc1ccc2nc3[nH]c(=O)[nH]c(=O)c3cc2c1 . Its measured zone of inhibition at 500 µg/disc is 10

Consider O=c1[nH]c(=S)[nH]c2nc3ccc(Cl)cc3cc12 . Its measured zone of inhibition at 500 µg/disc is 8

Consider O=c1[nH]c(=S)[nH]c2nc3ccccc3cc12 . Its measured zone of inhibition at 500 µg/disc is 10

----------
# System: Klebsiella aerogenes
# Protocol summary: Antibacterial activity against Enterobacter aerogenes NCIM 2239 at 1000 ug/disk after 24 hr by disk diffusion method
# Assay type: functional
# Recorded conditions: NCIM 2239, 24 h, read-out: DIZ
Assay endpoint: zone of inhibition at 1000 µg/disc (mm)
Answer in mm, number only, no unit symbol.

Would you please look over these solved cases?
Form field, zone of inhibition at 1000 µg/disc with Klebsiella aerogenes, item COc1cccc2cc3c(=O)[nH]c(=O)[nH]c3nc12 : 8

Form field, zone of inhibition at 1000 µg/disc with Klebsiella aerogenes, item O=c1[nH]c(=O)c2cc3cc(Cl)ccc3nc2[nH]1 : 8

Form field, zone of inhibition at 1000 µg/disc with Klebsiella aerogenes, item Cc1ccc2nc3[nH]c(=O)[nH]c(=O)c3cc2c1 : 11

Form field, zone of inhibition at 1000 µg/disc with Klebsiella aerogenes, item O=c1[nH]c(=O)c2cc3cc(Br)ccc3nc2[nH]1 : 10

Proceeding to the next molecule to report its zone of inhibition at 1000 µg/disc.
Form field, zone of inhibition at 1000 µg/disc with Klebsiella aerogenes, item O=c1[nH]c(=S)[nH]c2nc3ccccc3cc12 : 13
